Test system: LOX IMVI melanoma
experiment: NCI-60 one-dose screen, 48 h
settings: 10 µM unless noted
Compounds without any hit were thinned out: in the full panel of roughly 83,000, 20% have a hit. Activity calls are given as the source filed them. Rule for the calls: active = growth percent below 10; inactive = the rest.
Hi there, use one of these labels in your reply, thanks! class 1 (active), class 0 (inactive)

# outcome recorded in this test, key = `CN(C)c1ccc([C@@H](C(=O)Nc2cccc([N+](=O)[O-])c2)N(C(=O)c2cc3ccccc3[nH]2)c2cccc([N+](=O)[O-])c2)cc1`
class 0

# outcome recorded in this test, key = `c1ccc(Nc2nc3c(s2)CCc2c[nH]cc2-3)nc1`
class 0

# outcome recorded in this test, key = `CN1C(=O)/C(=C/c2ccc(C(=O)Nc3ncc(Cc4cccc(C(F)(F)F)c4)s3)cc2)SC1=S`
class 0

# outcome recorded in this test, key = `O=S(=O)(NCCNc1nccc(-c2c(-c3ccc(F)c(O)c3)nc3sccn23)n1)c1ccc(Cl)cc1`
class 0

# outcome recorded in this test, key = `COc1ccc(Nc2ncc(I)c(NCCCNC(=O)C3CCC3)n2)cc1`
class 1

# outcome recorded in this test, key = COc1cc(N2C(=O)[C@H](Cl)C2c2ccc(SC)cc2)cc(OC)c1OC (stereo partly drawn)
class 0

# outcome recorded in this test, key = `CCCCCCCCn1ccc2cc(NC(=O)CN3CCN(c4cc(C)nc(Cl)n4)CC3)ccc21`
class 0

# outcome recorded in this test, key = `CC(C)(C)CC(C)(C)Nc1c(-c2c(O)c3ccccc3oc2=O)nc2sc3ccccc3n12`
class 0

# outcome recorded in this test, key = `C=C(C)[C@@H]1CC[C@]2(C(=O)N3CCNCC3)CC[C@]3(C)[C@H](CC[C@@H]4[C@@](C)(CCC(=O)N5CCNCC5)[C@H](C(=C)C)CC[C@]43C)[C@@H]12`
class 0

# outcome recorded in this test, key = COc1ccccc1S(=O)(=O)Nc1ccc2c3c(cc(CCC(=O)NCCCCNc4cccc5c4C(=O)N(C4CCC(=O)NC4=O)C5=O)cc13)C(=O)N2C (stereo not drawn)
class 0

# outcome recorded in this test, key = `COc1ccc(OC)c(Nc2nnc(-c3cc(OC)c(OC)c(OC)c3)o2)c1`
class 0

# outcome recorded in this test, key = OC1(c2ccccc2)c2ccccc2N(c2ccccc2)c2ccc(Cl)cc21 (stereo not drawn)
class 1

# outcome recorded in this test, key = COc1cc2c(c(OC)c1OC)C(=O)CC(c1cccc(C(=O)Nc3ccccc3Br)c1)O2 (stereo not drawn)
class 0

# outcome recorded in this test, key = `Cc1cccc(N2C(=O)/C(=C/C(Cl)=C/c3ccc([N+](=O)[O-])cc3)SC2=S)c1C`
class 1

# outcome recorded in this test, key = C#CCOc1cccc(Nc2ncnc3c2ncn3C2CCN(C(=O)CCl)C2)c1 (stereo not drawn)
class 1

# outcome recorded in this test, key = Nc1ncnc2c1N=C(c1ccc(F)cc1)CC(c1cccc(Nc3ccnc4cc(Cl)ccc34)c1)N2 (stereo not drawn)
class 0

# outcome recorded in this test, key = `C#COc1cccc(Nc2ncnc3cc(NC(=O)[C@H](C)Cl)ccc23)c1`
class 1

# outcome recorded in this test, key = `Cc1nc2sc(C(=O)Nc3cccc4ccccc34)c(N)c2cc1C(=O)c1ccccc1`
class 0

###

Test system: MDA-MB-231 breast
experiment: NCI-60 one-dose screen, 48 h
settings: 10 µM unless noted
Compounds without any hit were thinned out: in the full panel of roughly 83,000, 20% have a hit. Active and inactive are the calls of the source. Rule for the calls: active = growth percent below 10; inactive = the rest.
Hi there, use one of these labels in your reply, thanks! True = active, False = inactive

# outcome recorded in this test, key = `CCN(CC)CCOc1ccc2ccc(=O)oc2c1`
False

# outcome recorded in this test, key = `CC1=C2[C@@H](CC1)[C@]1(C)O[C@@](C3CCNCC3)(C[C@H]1OC(=O)CO)[C@H]2OC(=O)/C=C/c1ccccc1`
False

# outcome recorded in this test, key = `CN1c2ccccc2S(=O)(=O)n2c(SCC(=O)Nc3nc4ccc(F)cc4s3)nnc21`
False

# outcome recorded in this test, key = `c1csc(-c2cn3nc(-c4c[nH]c5ccccc45)sc3n2)c1`
False

# outcome recorded in this test, key = C=C(C)[C@@H]1CC[C@]2(COC3CCCCO3)CC[C@]3(C)[C@H](CC[C@@H]4[C@@]5(C)C=C(C=O)C(=O)C(C)(C)[C@@H]5CC[C@]43C)[C@@H]12 (some centres undefined)
True

# outcome recorded in this test, key = `O=C(Nc1cc(Cl)cc(Cl)c1)Oc1c(Cl)c(Cl)c(Cl)c(Cl)c1Cl`
False

# outcome recorded in this test, key = `Clc1ccc(Nc2ncc(Cc3cccc(Cl)c3Cl)s2)cc1`
False

# outcome recorded in this test, key = `COc1ccc(Cl)cc1Nc1nc(C(F)(F)F)ccc1C(=O)N/N=C/c1ccc([N+](=O)[O-])cc1`
True

# outcome recorded in this test, key = CCN(CC)CCCC(Cc1ccccc1)Nc1c2ccc(Cl)cc2nc2ccc(OC)cc12 (centres undefined)
True
